Can you tell me amyloid nucleation score for the items I'm about to list?
# ASSAY_NAME: amyloid nucleation score (Sup35N fusion, yeast selection) (log enrichment); library NNK2; higher = more nucleation; inactive = no reads after selection;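 further: zero at mode of non-aggregating sequences after 7 days selection at 30°C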
Answer with the value's number alone.

# query: amyloid nucleation score of entry KLPMRNFRDVCEADLHPVK 1.11

Query (substance): SVLMDYNSKWWDRMSSFIRP ; field requested: amyloid nucleation score -0.272

Which amyloid nucleation score is reported for this substance? VKITGPRWLATIICYMFR 6.47

What value of measured amyloid nucleation score is listed for LAWSVLNMFRKVAFN ? 0.089

Fill blank: measured amyloid nucleation score of the substance MCNFRSWGALLNKRAHGVGS is ____. 0.307

Item under review: WTYRCPALLFYQFYAKGYA . Reported amyloid nucleation score? -0.594

Give its amyloid nucleation score value. Item: IGSEDPRHFRSVCWSYNDTL -0.789

Item under review: WSVGVESSKDQSLDQFGSD . Reported amyloid nucleation score? -0.184

Sample VLRANGCWLFMLHNLIYLWL — what was its amyloid nucleation score? 0.172

Consider the substance shown here: FTMGVRRLCYSWLRARFVKC What is its recorded amyloid nucleation score? -0.368

# input substance: MHGFNDAYFLCDVSAQGLV ; wanted: its amyloid nucleation score -0.128

Returns the measured amyloid nucleation score for the input substance. Input: SLCMHTAVFHS 0.092

Please report the recorded amyloid nucleation score for LIARSLGFKNVWS . -0.575

Fill blank: measured amyloid nucleation score of the substance ILFCLF is ____. 8.14

Given the entry GMAFAKA , report its measured amyloid nucleation score. 0.077

amyloid nucleation score for HADNARRYQTTLMVGLRVVG ? 0.409

Sample YNYPSVNIRLKIDLAGSLGC — what was its amyloid nucleation score? 2.65

What does the record list as amyloid nucleation score for RLLDFCQFPVTS ? 3.7

Any idea what amyloid nucleation score was measured for YMTVLLMSVFNWSQSRRPP ? 3.55

Tell me the measured amyloid nucleation score of TFVITLNGHSCQVGTITPRN , please. 8.01

Any idea what its amyloid nucleation score is? The substance is APSGRHFFTFTPC 0.605

Would you kindly share the measured amyloid nucleation score for SNLEHSGWRTRMRWGL ? 5.5

Would you mind telling me what amyloid nucleation score value was observed for LKHKHRNMRITCSASI ? -0.269

For the substance VVERKLVMHYGMEMYTVHDG , what amyloid nucleation score is on record? 0.971

Field request: amyloid nucleation score | item: VAMVLLC 1.03

Looking for the measured amyloid nucleation score of STTLSEIMIYAVTGG , can you help? -0.45

I have this substance here, KVALINYSLPMYFSVVTGLY , and I need its recorded amyloid nucleation score. 2.97

I am curious: what amyloid nucleation score value has been reported for ILDFKWNYYG ? 3.05

Any idea what its amyloid nucleation score is? The substance is CTLVFKGLGCKSVELGGTFC -0.564

Data request, read-out amyloid nucleation score, for SLSYATTFF 0.476

What does the record list as amyloid nucleation score for DGFYCL ? 0.019

I am curious: what amyloid nucleation score value has been reported for GVSLFYNWPPSAFKVRYE ? -0.611

Suppose we examine the substance RVLVVYRSLKVAESLSLTSV ; what amyloid nucleation score value has been reported? 0.093

Recorded amyloid nucleation score for HPKAYARVTTK , please? -0.068

Which amyloid nucleation score value is on record for HRLLVPDHTMYVSLKRKGLR ? 0.092

Quick one: amyloid nucleation score for ALRDFS ? 0.465

amyloid nucleation score for EGRCNYTGHMFCRYLCKHYT ? -0.088

May I ask what amyloid nucleation score has been recorded for CDILPDLPGRFALVRKASHN ? 1.11

Looking for the measured amyloid nucleation score of NLRPAFHDMDKQCGG , can you help? 0.045

Any idea what its amyloid nucleation score is? The substance is FVEGLYWVSVVILG -1.58

Please look up its amyloid nucleation score: STVKVLVPEVHWSKATPRNY 2.99

Can you share its amyloid nucleation score? I mean this substance: YGKKCLSKAKKSTKISLPG 0.016

Requested field: amyloid nucleation score. Item: KGSSSWTLPVYSLELSLV -0.731

Looking for the measured amyloid nucleation score of THLWVNSFMIDPFRSESAAT , can you help? -0.499

Form field: reported amyloid nucleation score of MSISSALNKSSHTNSSMWNK -0.277

Param item = FDLCCMKYHSYHMQFI ; retrieve measured amyloid nucleation score. -0.214

* * *

# ASSAY_NAME: amyloid nucleation score (Sup35N fusion, yeast selection) (log enrichment); library NNK1; higher = more nucleation; inactive = no reads after selection
ASSAY_READOUT: amyloid nucleation score

>>> data_value("PYYHHVGVGYAFYVICVRAF")
"inactive"
>>> data_value("CRSSVLRSVCINNLSKCSLV")
"inactive"
>>> data_value("FRVLWDYCVSSTVRRVTSLG")
"inactive"

* * *

# ASSAY_NAME: amyloid nucleation score (Sup35N fusion, yeast selection) (log enrichment); library NNK1; higher = more nucleation; inactive = no reads after selection
Recorded amyloid nucleation score split into classes group A = under 0.2, group B = from 0.2 up to 1, group C = 1 and over

Which bin should I file WWSYQF under? group B

Note: place this substance into its band. Item: IFSIRFTLCGWPLLCHIMLL group A

Assign a bin to TMIGILWCSYINVALYSGGL group C

Categorize the following entry: NGKVYVELKEWDLRVVGSLR group C

For this substance, which bin applies? MWWAHDGFRSCLRHISHADG group B

Tag the class for ESMDSWDYVLNISAEMVYCR group B

# bin lookup: classify YNYREWFSLIYFCIWDITWS by its amyloid nucleation score group A

Pick a category. Item: HVMTFEVSFRTGCKDVINWV group C

Which category fits this record: MDCCYYFFLIF group C

Place this substance in its band: IDVGSHFCSFQEHKACGTSL group B

Hi, small favor: classify SVGFDDGPRSGTLNGFVSRR by its amyloid nucleation score when you get a moment. group A

Lab log: LLNMCNNESTLERNPF — assign amyloid nucleation score category group C

Bin? DCGDNRLTTEGQKSSSPVAD group B

Record CFIDQYVVTNCSLLTYFM — which class? group A

Category lookup for the substance QWGTREYGIFLDIFVHVTVN group B

Exam item: assign AYKDGVTTLDLGCTGCFCYA to the correct category. group C

Kindly state the category for this substance: ENVCFLTKM group B

Input LSHRGVLVAMDRTMYPM ; output its category group A

* * *

# ASSAY_NAME: amyloid nucleation score (Sup35N fusion, yeast selection) (log enrichment); library NNK2; higher = more nucleation; inactive = no reads after selection
ASSAY_READOUT: amyloid nucleation score

>>> data_value("CVVTSVIENGFFLQFIMFYQ")
"inactive"
>>> data_value("ITHCLTAFSVLWILVYVW")
"inactive"
>>> data_value("RVPTVLFFLIVDFSCPPFSC")
"inactive"

* * *

# ASSAY_NAME: amyloid nucleation score (Sup35N fusion, yeast selection) (log enrichment); library NNK2; higher = more nucleation; inactive = no reads after selection
Please enter class 1 where amyloid nucleation score is greater than or equal to 0.4, and class 0 where it is lower.

Record STQRIEDIEIVEQKCPACIG ; criterion: amyloid nucleation score no lower than 0.4. Met? class 1

Hello, I need to know if DGSNIFLLV has measured amyloid nucleation score not below 0.4. Thanks! class 0

Is amyloid nucleation score at least 0.4? Consider VLYWCPRDSKTWLSGRLLPM class 1

Is amyloid nucleation score for VNTPDISGRHVSYFDFFVFY at or above 0.4? class 1

Given the entry MWKQWSSRTPRSVVYRGLMV , answer whether its amyloid nucleation score meets or surpasses 0.4. class 1

Please check the record SQIWFTVTYGQYCYYIVSL and state if its amyloid nucleation score is at or above 0.4. class 0

Does amyloid nucleation score meet or surpass 0.4 for IRMAISLFNFGFSNMFMLKE ? class 0

Evaluate WSWSLGNYYAHNVDCYSVGC : amyloid nucleation score at minimum 0.4? class 0

Hi, just wondering whether IRYVMHWFISAVILTTPPCG shows amyloid nucleation score of 0.4 or higher. class 0

Could you please find out whether DFYGYRKDFFLEQCPACSLY has amyloid nucleation score that meets 0.4 or exceeds it? class 0

Determine whether measured amyloid nucleation score meets or exceeds 0.4 for ARSRFSYKMRYPACGVISSR class 0

Is amyloid nucleation score for TIPVRPTMEYCTQLLTLLQ at or above 0.4? class 0

* * *

# ASSAY_NAME: amyloid nucleation score (Sup35N fusion, yeast selection) (log enrichment); library NNK1; higher = more nucleation; inactive = no reads after selection
Could you please report measured amyloid nucleation score for the items listed next?
Enter the number alone.

Please report the recorded amyloid nucleation score for ANSSLLEFHTYDWDLYSACL . -1.06

What value of measured amyloid nucleation score is listed for RQSRLAYGCVLVYVLTADFG ? -0.025

Given the entry INYFQDD , report its measured amyloid nucleation score. -0.727

GET /values?readout=amyloid nucleation score&item= SCIKNSCGINYLVGQATFHN 6.5

Query: amyloid nucleation score; subject: KIPKSVYVLTSIEGSAFNIK -0.234

Fill in the blank: the reported amyloid nucleation score of ISSLYLMSFCILFPPRKFVY is ____. -1.09

Would you kindly share the measured amyloid nucleation score for DRCVQCTALTASTGR ? -0.113

amyloid nucleation score for NTQNRSEVNQGVVGQVR ? -0.378

For the substance FKRRKSFAHCRFAGVVRRWW , what amyloid nucleation score is on record? -0.581

Reported amyloid nucleation score, substance CPRYLATNIFHAGECVNHSR : ____ -1.08

# lookup: amyloid nucleation score of QFKRKIICQDKSVAFKCNYR -0.493

So what's the measured amyloid nucleation score for this one? KHCDYHRWVEITSKRLFIGG 0.134

Entry MYMGAPSIVVIVMLQNMKFV : reported amyloid nucleation score = ? 2.34

Consider the substance TSREGRGSLSVWSG and give its measured amyloid nucleation score. -0.19

amyloid nucleation score for WTAGWL ? -0.065

Query (substance): QFSHNRIMLDQTWKNVVKGL ; field requested: amyloid nucleation score -0.001

Form field: reported amyloid nucleation score of IGLMRLC -0.608

Which amyloid nucleation score reading was recorded for the substance SLLIELSFRTGNSEY ? 0.152

Which amyloid nucleation score is reported for this substance? YSYFWVAWF 0.329

Data request, read-out amyloid nucleation score, for IRDDCTYYVSAE 0.634

Any idea what its amyloid nucleation score is? The substance is APVSIKCRFL 0.357

Field request: amyloid nucleation score | item: HAVQLRYLKKKWGWYALCKR 0.712

Name the reported amyloid nucleation score value associated with the substance DKRIARLNPRIGTSVSWDVS 0.89

amyloid nucleation score for FHSSGFVVYMLIVRGSPSMR ? 0.218

Entry FDATFVMLRSRAFFKICKER has what amyloid nucleation score? 0.751

Reported amyloid nucleation score, substance NVHWRDVGGMLFRRNNIRRI : ____ 5.22

For the substance shown here, TYRLIRSFC , give the reported amyloid nucleation score. 0.368

Bench note: what amyloid nucleation score did TFQHCLRYWPNHSRLNSCRL show? 0.155

Find the recorded amyloid nucleation score belonging to CRRNGGTLMAGE and report it. 1.21

Consider the substance shown here: AKVYSGIPWWNFSTFLRGEV What is its recorded amyloid nucleation score? -0.668

// amyloid nucleation score lookup, key: TVRSYRSGRCYNFIVNRERA -0.177

Report amyloid nucleation score for LTVGYSRYIPVRYGF please. -1.08

What value of amyloid nucleation score has been recorded for this entry: NTAFSERTWLVRFKMVPRWK 0.647

Requested field: amyloid nucleation score. Item: YWLLLSSENRECVLVTRRHR -0.585

// returns reported amyloid nucleation score for input FGNSFRSQGVSFM 0.414

Item under review: VSVKSNGWMSWWLSWQVPKH . Reported amyloid nucleation score? -0.147

Which value of amyloid nucleation score has been reported for SFLWYIGFNSWRFCGRYTTL in the records? 0.174

Endpoint output: amyloid nucleation score of PRYRASVYYKDTRVLLLF . Value? 0.512

# amyloid nucleation score lookup, item DGLRCIGCIGNTGDWNS 6.86

Can you share its amyloid nucleation score? I mean this substance: NTDYSQAGVCGSRCLNSAL 1.54

So what's the measured amyloid nucleation score for this one? WASFGPLGAQVPDRRFIYMP 0.151

# input substance: GLRLNITNSRGRPRETWRGR ; wanted: its amyloid nucleation score 2.33

// query amyloid nucleation score value for entry MHHCSFSSLDFTVHK -1.02

# query: amyloid nucleation score of entry LISNRPMW 0.29

I am curious: what amyloid nucleation score value has been reported for SYVVTVLHNWVWEEGDLEYE ? 4.36

State the recorded amyloid nucleation score for this entry: YQDFYMLSRLAKLGG 0.36

Recorded amyloid nucleation score for SKSDQSWYFL , please? -0.227

Recorded amyloid nucleation score of IVSMRL , please. 0.216

Data provenance is the supplement of paper PMC12042874.
